Target: 5-hydroxytryptamine receptor 2C (Homo sapiens, UniProt P28335)
Sequence (P28335 whole entry): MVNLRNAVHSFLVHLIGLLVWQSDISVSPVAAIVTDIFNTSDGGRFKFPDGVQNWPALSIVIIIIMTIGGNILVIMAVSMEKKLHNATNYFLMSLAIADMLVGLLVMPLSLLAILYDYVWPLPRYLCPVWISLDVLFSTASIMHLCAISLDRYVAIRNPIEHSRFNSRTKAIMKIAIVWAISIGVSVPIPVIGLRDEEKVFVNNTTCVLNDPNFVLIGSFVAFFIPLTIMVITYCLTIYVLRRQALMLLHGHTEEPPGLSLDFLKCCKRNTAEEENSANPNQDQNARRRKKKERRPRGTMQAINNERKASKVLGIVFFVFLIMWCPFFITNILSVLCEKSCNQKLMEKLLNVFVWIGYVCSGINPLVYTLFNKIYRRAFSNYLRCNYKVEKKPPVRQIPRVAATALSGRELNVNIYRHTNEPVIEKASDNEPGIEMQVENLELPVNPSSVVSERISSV
Assay: Antagonistic binding affinity measured against 5-hydroxytryptamine 2C receptor (human clone expressed in 293 cells) using [3H]mesulergine as radioligand
Assay type: cell-based, HEK293
MEASURE: pKi
Scale note: pKi = -log10(concentration in M).

stdin: Quick one: pKi for `Cc1cc(NC(=O)Nc2ccc3sccc3c2)sn1` ?
stdout: 6.38
